# TESTED TARGET: ERR1 (also known as ERR-α or ERR-1) (Homo sapiens, UniProt P11474)
# ASSAY NAME: TR-FRET assay (disruption of co-activator peptide binding to ERR1 LBD)
# CONDITION PARAMETERS: 6 nM 6His-ERR1LBD, 6 nM GST-SRC-2 peptide; average of 3 independent experiments
# Method: Time-Resolved Fluorescence Resonance Energy Transfer (TR-FRET) experiments were performed to examine the functional response of ERR1 (also known as ERR-α or ERR-1) ligands. The TR-FRET assay described herein relied on the conformation of ERR1 for binding to a co-activator peptide: when a test compound binds to ERR1 and alters its conformation, it can disrupt the binding of the co-activator peptide. […]
RESULT TYPE: EC50 (nM)
The answer is to be given in nM; state only the numeric part.

Example entries begin here.
                                   molecule                             tested_target  result_type  recorded_result
0  O=C1S/C(=C\c2ccc3c(cnn3Cc3ccc(Cl)cc3C(F)(F)F)c2)C(=O)N1CCN1CCOCC1  ERR1 (also known as ERR-α or ERR-1) (Homo sapiens, UniProt P11474)         EC50               43
1  NC1(CN2C(=O)S/C(=C\c3ccc4c(cnn4Cc4ccc(Cl)cc4C(F)(F)F)c3)C2=O)CC1  ERR1 (also known as ERR-α or ERR-1) (Homo sapiens, UniProt P11474)         EC50               34
2  O=C(O)CN1C(=O)S/C(=C\c2cc3cnn(Cc4ccc(Cl)cc4C(F)(F)F)c3cc2F)C1=O  ERR1 (also known as ERR-α or ERR-1) (Homo sapiens, UniProt P11474)         EC50                7

Record request: EC50 value, item O=C(O)CN1C(=O)S/C(=C\c2ccc3c(ccn3Cc3ccc(Cl)cc3C(F)(F)F)c2)C1=O
120

Entry O=C1S/C(=C\c2ccc3c(cnn3Cc3ccc(Cl)cc3C(F)(F)F)c2)C(=O)N1CC(O)C1CCNCC1 (stereo not shown) please
38

Moving on to CCNCCN1C(=O)S/C(=C\c2ccc3c(cnn3Cc3ccc(Cl)cc3C(F)(F)F)c2)C1=O
17

// next record Cc1nn(Cc2ccc(Cl)cc2C(F)(F)F)c2ccc(/C=C3\SC(=O)N([C@@H]4CCN(C)C[C@H]4F)C3=O)cc12 (relative stereo)
46

---

# TESTED TARGET: ERR1 (also known as ERR-α or ERR-1) (Homo sapiens, UniProt P11474)
# Sequence (P11474 193-421 limits assumed): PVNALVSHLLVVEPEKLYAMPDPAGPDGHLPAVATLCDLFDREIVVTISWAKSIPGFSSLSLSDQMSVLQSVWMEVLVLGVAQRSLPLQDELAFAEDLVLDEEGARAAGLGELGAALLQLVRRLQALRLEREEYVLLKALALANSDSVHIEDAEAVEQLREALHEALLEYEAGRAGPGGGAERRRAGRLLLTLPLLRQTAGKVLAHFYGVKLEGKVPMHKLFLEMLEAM
# ASSAY NAME: TR-FRET assay (disruption of co-activator peptide binding to ERR1 LBD)
# CONDITION PARAMETERS: 6 nM 6His-ERR1LBD, 6 nM GST-SRC-2 peptide; average of 3 independent experiments
molecules and their reported EC50
Kindly answer with a numeric value in nM, unit omitted.

Take a look at these entries with their results.
>>> df
                                   molecule  result_type  scale_unit  recorded_result
0  Cc1nn(Cc2ccc(Cl)cc2C(F)(F)F)c2ccc(/C=C3\SC(=O)N(CC(=O)NS(C)(=O)=O)C3=O)cc12         EC50          nM               72
1  O=C1S/C(=C\c2ccc3c(cnn3Cc3ccc(Cl)cc3C(F)(F)F)c2)C(=O)N1Cc1nccn1S(=O)(=O)C(F)(F)F         EC50          nM               29

// fetch ERR1 (also known as ERR-α or ERR-1) (Homo sapiens, UniProt P11474) EC50 for CN1CCCC1CCN1C(=O)S/C(=C\c2ccc3c(cnn3Cc3ccc(Cl)cc3C(F)(F)F)c2)C1=O (stereo not shown)
32

---

# TESTED TARGET: ERR1 (also known as ERR-α or ERR-1) (Homo sapiens, UniProt P11474)
# Sequence (P11474 193-421 limits assumed): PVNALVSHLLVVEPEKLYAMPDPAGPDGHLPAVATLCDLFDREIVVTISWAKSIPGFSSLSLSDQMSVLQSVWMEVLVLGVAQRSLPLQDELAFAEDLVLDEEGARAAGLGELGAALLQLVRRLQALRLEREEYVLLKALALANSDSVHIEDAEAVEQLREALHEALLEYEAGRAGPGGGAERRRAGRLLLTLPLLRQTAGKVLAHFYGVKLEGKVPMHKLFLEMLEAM
# ASSAY NAME: TR-FRET assay (disruption of co-activator peptide binding to ERR1 LBD)
# CONDITION PARAMETERS: 6 nM 6His-ERR1LBD, 6 nM GST-SRC-2 peptide; average of 3 independent experiments
Just a reminder that ties go to Not met: only EC50 strictly below 0.1 µM counts as Met.

                                   compound    class
0  O=C1S/C(=C\c2ccc3c(cnn3Cc3ccc(Cl)cc3C(F)(F)F)c2)C(=O)N1Cc1csc(NS(=O)(=O)C(F)(F)F)n1  Not met

Quick check: EC50 of COCCN1CCO[C@H](CN2C(=O)S/C(=C\c3ccc4c(cnn4Cc4ccc(Cl)cc4C(F)(F)F)c3)C2=O)C1 under 0.1 µM?
Not met

Would you kindly repeat that for CS(=O)(=O)CCN1CCC(N2C(=O)S/C(=C\c3ccc4c(cnn4Cc4ccc(Cl)cc4C(F)(F)F)c3)C2=O)CC1 ?
Met

Thanks! And CN1CC(N2C(=O)S/C(=C\c3ccc4c(cnn4Cc4ccc(Cl)cc4C(F)(F)F)c3)C2=O)C1 ?
Met

Would you mind doing NCCN1C(=O)S/C(=C\c2ccc3c(cnn3Cc3ccc(Cl)cc3C(F)(F)F)c2)C1=O as well?
Met

Check O=C1S/C(=C\c2ccc3c(cnn3Cc3ccc(Cl)cc3C(F)(F)F)c2)C(=O)N1C[C@@H]1CCCN1 too.
Met

---

Measured pEC50, listed per entry for reference.
# TESTED TARGET: ERR1 (also known as ERR-α or ERR-1) (Homo sapiens)
# ASSAY NAME: TR-FRET assay (disruption of co-activator peptide binding to ERR1 LBD)
# CONDITION PARAMETERS: 6 nM 6His-ERR1LBD, 6 nM GST-SRC-2 peptide; average of 3 independent experiments
Convention used: pEC50 is expressed as -log10 of the molar concentration.

In [3]: df
Out[3]:
                                   compound  recorded_result
0  O=C1S/C(=C\c2ccc3c(cnn3Cc3ccc(C(F)(F)F)cc3C(F)(F)F)c2)C(=O)N1O             7.33
1  CC(C)N1CC[C@@H](N2C(=O)S/C(=C\c3ccc4c(cnn4Cc4ccc(Cl)cc4C(F)(F)F)c3)C2=O)[C@H](F)C1 [Compound 387]             6.91

I am curious: what pEC50 value has been reported for COCCN1CCN(N2C(=O)S/C(=C\c3ccc4c(cnn4Cc4ccc(Cl)cc4C(F)(F)F)c3)C2=O)CC1 ?
7.60

Same lookup for Nc1nc(CN2C(=O)S/C(=C\c3ccc4c(cnn4Cc4ccc(Cl)cc4C(F)(F)F)c3)C2=O)cs1 , please.
7.21

---

# TESTED TARGET: ERR1 (also known as ERR-α or ERR-1) (Homo sapiens)
# ASSAY NAME: TR-FRET assay (disruption of co-activator peptide binding to ERR1 LBD)
# CONDITION PARAMETERS: 6 nM 6His-ERR1LBD, 6 nM GST-SRC-2 peptide; average of 3 independent experiments
RESULT TYPE: pEC50
Please express pEC50 as -log10 of the molar concentration.

Recorded results for 5 compounds are shown here.
In [3]: df
Out[3]:
                                   compound                             tested_target  recorded_result
0  N[C@H]1CC[C@H](CN2C(=O)S/C(=C\c3ccc4c(cnn4Cc4ccc(Cl)cc4C(F)(F)F)c3)C2=O)CC1  ERR1 (also known as ERR-α or ERR-1) (Homo sapiens)             6.89
1  O=C1S/C(=C\c2ccc3c(cnn3[C@@H]3CCc4cc(Cl)ccc43)c2)C(=O)N1CCN1CCCC1  ERR1 (also known as ERR-α or ERR-1) (Homo sapiens)             5.01
2  Cc1nn(C)c(Cl)c1S(=O)(=O)NCCN1C(=O)S/C(=C\c2ccc3c(cnn3Cc3ccc(Cl)cc3C(F)(F)F)c2)C1=O  ERR1 (also known as ERR-α or ERR-1) (Homo sapiens)             7.08
3  [2H]C([2H])([2H])N1CC[C@@H](N2C(=O)S/C(=C\c3ccc4c(cnn4Cc4ccc(Cl)cc4C(F)(F)F)c3)C2=O)[C@H](F)C1 (relative stereo)  ERR1 (also known as ERR-α or ERR-1) (Homo sapiens)             7.82
4  O=C1S/C(=C\c2ccc3c(c2)nnn3Cc2ccc(Cl)cc2C(F)(F)F)C(=O)N1Cc1c[nH]nn1  ERR1 (also known as ERR-α or ERR-1) (Homo sapiens)             7.62

Could you share which pEC50 value was measured for COc1ccc(Cn2ncc3cc(/C=C4\SC(=O)N(CCN5CCN(C)CC5)C4=O)ccc32)c(C(F)(F)F)c1 ?
7.14

Moving on to CN1C[C@H](F)C[C@H]1CN1C(=O)S/C(=C\c2ccc3c(cnn3Cc3ccc(Cl)cc3C(F)(F)F)c2)C1=O
6.80

Repeat with O=C(O)CN1C(=O)S/C(=C\c2ccc3c(c2)c(Br)nn3Cc2ccc(Cl)cc2C(F)(F)F)C1=O
8.15

Then this compound: C[C@@H](N)CN1C(=O)S/C(=C\c2ccc3c(cnn3Cc3ccc(C(F)(F)F)cc3C(F)(F)F)c2)C1=O
7.39

Further, for O=C(NN1C(=O)S/C(=C\c2ccc3c(cnn3Cc3ccc(C(F)(F)F)cc3C(F)(F)F)c2)C1=O)C1CC1 ?
7.96

Consider next the compound O=C1S/C(=C\c2ccc3c(cnn3Cc3ccc(Cl)cc3C(F)(F)F)c2)C(=O)N1CCN1CCC(F)(F)C1 in the same way.
6.74

Quick one: CN1CCC(F)(CN2C(=O)S/C(=C\c3ccc4c(cnn4Cc4ccc(Cl)cc4C(F)(F)F)c3)C2=O)CC1
8.15

Field entry: CCN1CCC(F)(CN2C(=O)S/C(=C\c3ccc4c(cnn4Cc4ccc(Cl)cc4C(F)(F)F)c3)C2=O)CC1
7.15

Request: O=C1S/C(=C\c2ccc3c(cnn3Cc3ccc(Cl)cc3C(F)(F)F)c2)C(=O)N1CCN1CCC(C(O)CO)CC1 (centres unmarked)
6.28
